All figures here come from patent US20090198069A1.

experiment: Solubility in a solvent (qualitative); assay type: physicochemical; conditions: dichloromethane (methylene chloride)
assay_metric: solubility in a solvent

# compound, solubility in a solvent
data = [
    ("Cc1cc(C)[n+]2[n]1[Pt-2]13[n]4c(C)cc(C)[n+]4[Cu-][n]4c(C)cc(C)[n+]4[Pt-2]([n]4c(C)cc(C)[n+]4[Cu-][n]4c(C)cc(C)[n+]41)([n]1c(C)cc(C)[n+]1[Cu-][n]1c(C)cc(C)[n+]13)[n+]1c(C)cc(C)[n]1[Cu-]2 [[Pt2Cu4(μ-dmpz)8]]", "soluble"),
    ("CC(C)(C)c1cc[n+]2[n]1[Cu-][n+]1c(C(C)(C)C)cc[n]1[Pt-2]13[n]4ccc(C(C)(C)C)[n+]4[Cu-][n]4c(C(C)(C)C)cc[n+]4[Pt-2]2([n]2ccc(C(C)(C)C)[n+]2[Cu-][n]2c(C(C)(C)C)cc[n+]21)[n]1ccc(C(C)(C)C)[n+]1[Cu-][n]1c(C(C)(C)C)cc[n+]13 [[Pt2Cu4(μ-3-^tBupz)8]]", "soluble"),
    ("CC(C)(C)c1ccn[nH]1.CC(C)(C)c1ccn[nH]1.CC(C)(C)c1ccn[nH]1.CC(C)(C)c1ccn[nH]1.[Cl-].[Cl-].[Pt+2] [[Pt(3-^tBupzH)4]Cl2]", "readily soluble"),
    ("Cc1cc[n+]2[n]1[Pt-2]13[n]4c(C)cc[n+]4[Ag-][n]4ccc(C)[n+]4[Pt-2]([n]4c(C)cc[n+]4[Ag-][n]4ccc(C)[n+]41)([n]1c(C)cc[n+]1[Ag-][n]1ccc(C)[n+]13)[n+]1c(C)cc[n]1[Ag-]2 [[Pt2Ag4(μ-3-Mepz)8]]", "soluble"),
    ("CC(C)(C)c1cc[n+]2[n]1[Ag-][n+]1c(C(C)(C)C)cc[n]1[Pt-2]13[n]4ccc(C(C)(C)C)[n+]4[Ag-][n]4c(C(C)(C)C)cc[n+]4[Pt-2]2([n]2ccc(C(C)(C)C)[n+]2[Ag-][n]2c(C(C)(C)C)cc[n+]21)[n]1ccc(C(C)(C)C)[n+]1[Ag-][n]1c(C(C)(C)C)cc[n+]13 [[Pt2Ag4(μ-3-^tBupz)8]]", "readily soluble"),
]

Query c1ccc(-c2cc(-c3ccccc3)[n+]3[n]2[Pt-2]24[Cl+][Ag-][n]5c(-c6ccccc6)cc(-c6ccccc6)[n+]5[Pt-2]([Cl+][Ag-][n]5c(-c6ccccc6)cc(-c6ccccc6)[n+]52)([n]2c(-c5ccccc5)cc(-c5ccccc5)[n+]2[Ag-][n]2c(-c5ccccc5)cc(-c5ccccc5)[n+]24)[n+]2c(-c4ccccc4)cc(-c4ccccc4)[n]2[Ag-]3)cc1 [[Pt2Ag4(μ-Cl)2(μ-dppz)6]] yields solubility in a solvent of readily soluble

====

assay: Solubility in a solvent (qualitative); assay type: physicochemical; details: chloroform
assay_metric: solubility in a solvent

# molecule, observed
records = [
    ("Cc1cc(C)[n+]2[n]1[Pt-2]13[n]4c(C)cc(C)[n+]4[Cu-][n]4c(C)cc(C)[n+]4[Pt-2]([n]4c(C)cc(C)[n+]4[Cu-][n]4c(C)cc(C)[n+]41)([n]1c(C)cc(C)[n+]1[Cu-][n]1c(C)cc(C)[n+]13)[n+]1c(C)cc(C)[n]1[Cu-]2 [[Pt2Cu4(μ-dmpz)8]]", "soluble"),
    ("Cc1cc[n+]2[n]1[Pt-2]13[n]4c(C)cc[n+]4[Ag-][n]4ccc(C)[n+]4[Pt-2]([n]4c(C)cc[n+]4[Ag-][n]4ccc(C)[n+]41)([n]1c(C)cc[n+]1[Ag-][n]1ccc(C)[n+]13)[n+]1c(C)cc[n]1[Ag-]2 [[Pt2Ag4(μ-3-Mepz)8]]", "soluble"),
]

====

test: Solubility in a solvent (qualitative); assay type: physicochemical; conditions: benzene
assay_metric: solubility in a solvent

# compound, assay_metric, observed
rows = [
    ("c1ccc(-c2cc(-c3ccccc3)[n+]3[n]2[Pt-2]24[Cl+][Ag-][n]5c(-c6ccccc6)cc(-c6ccccc6)[n+]5[Pt-2]([Cl+][Ag-][n]5c(-c6ccccc6)cc(-c6ccccc6)[n+]52)([n]2c(-c5ccccc5)cc(-c5ccccc5)[n+]2[Ag-][n]2c(-c5ccccc5)cc(-c5ccccc5)[n+]24)[n+]2c(-c4ccccc4)cc(-c4ccccc4)[n]2[Ag-]3)cc1 [[Pt2Ag4(μ-Cl)2(μ-dppz)6]]", "solubility in a solvent", "soluble"),
    ("Cc1cc(C)[n]([Pt-2]([n]2nc(C)cc2C)([n+]2[nH]c(C)cc2C)[n+]2[nH]c(C)cc2C)n1.Cc1cc(C)[n]([Pt-2]([n]2nc(C)cc2C)([n+]2[nH]c(C)cc2C)[n+]2[nH]c(C)cc2C)n1 [[{Pt(dmpz)2(dmpzH)2}2]]", "solubility in a solvent", "highly soluble"),
    ("Cc1cc(C)[n+]2[n]1[Pt-2]13[n]4c(C)cc(C)[n+]4[Ag-][n]4c(C)cc(C)[n+]4[Pt-2]([n]4c(C)cc(C)[n+]4[Ag-][n]4c(C)cc(C)[n+]41)([n]1c(C)cc(C)[n+]1[Ag-][n]1c(C)cc(C)[n+]13)[n+]1c(C)cc(C)[n]1[Ag-]2 [[Pt2Ag4(μ-dmpz)8]]", "solubility in a solvent", "highly soluble"),
    ("Cc1ccn[n]1[Pt-2]([n]1nccc1C)([n+]1[nH]ccc1C)[n+]1[nH]ccc1C.Cc1ccn[n]1[Pt-2]([n]1nccc1C)([n+]1[nH]ccc1C)[n+]1[nH]ccc1C [[{Pt(3-Mepz)2(3-MepzH)2}2]]", "solubility in a solvent", "soluble"),
]

Query [Cl][Pt-2]([n]1nc(-c2ccccc2)cc1-c1ccccc1)([n+]1[nH]c(-c2ccccc2)cc1-c1ccccc1)[n+]1[nH]c(-c2ccccc2)cc1-c1ccccc1 [[PtCl(dppz)(dppzH)2]] yields solubility in a solvent of soluble

====

assay: Solubility in a solvent (qualitative); format: physicochemical; conditions: acetonitrile
assay_metric: solubility in a solvent

# compound, observed
measured = [
    ("Cc1cc(C)[n+]2[n]1[Pt-2]13[n]4c(C)cc(C)[n+]4[Ag-][n]4c(C)cc(C)[n+]4[Pt-2]([n]4c(C)cc(C)[n+]4[Ag-][n]4c(C)cc(C)[n+]41)([n]1c(C)cc(C)[n+]1[Ag-][n]1c(C)cc(C)[n+]13)[n+]1c(C)cc(C)[n]1[Ag-]2 [[Pt2Ag4(μ-dmpz)8]]", "moderately soluble"),
    ("Cc1cc[n+]2[n]1[Pt-2]13[n]4c(C)cc[n+]4[Ag-][n]4ccc(C)[n+]4[Pt-2]([n]4c(C)cc[n+]4[Ag-][n]4ccc(C)[n+]41)([n]1c(C)cc[n+]1[Ag-][n]1ccc(C)[n+]13)[n+]1c(C)cc[n]1[Ag-]2 [[Pt2Ag4(μ-3-Mepz)8]]", "slightly soluble"),
    ("c1ccc(-c2cc(-c3ccccc3)[n+]3[n]2[Pt-2]24[Cl+][Ag-][n]5c(-c6ccccc6)cc(-c6ccccc6)[n+]5[Pt-2]([Cl+][Ag-][n]5c(-c6ccccc6)cc(-c6ccccc6)[n+]52)([n]2c(-c5ccccc5)cc(-c5ccccc5)[n+]2[Ag-][n]2c(-c5ccccc5)cc(-c5ccccc5)[n+]24)[n+]2c(-c4ccccc4)cc(-c4ccccc4)[n]2[Ag-]3)cc1 [[Pt2Ag4(μ-Cl)2(μ-dppz)6]]", "slightly soluble"),
    ("Cc1cc(C)[n]([Pt-2]([n]2nc(C)cc2C)([n+]2[nH]c(C)cc2C)[n+]2[nH]c(C)cc2C)n1.Cc1cc(C)[n]([Pt-2]([n]2nc(C)cc2C)([n+]2[nH]c(C)cc2C)[n+]2[nH]c(C)cc2C)n1 [[{Pt(dmpz)2(dmpzH)2}2]]", "moderately soluble"),
]
